molecular target: CDK12 (aa686-1082)/cyclinK complex (Homo sapiens, UniProt Q9NYV4); construct: A CDK12 (aa686-1082)/cyclinK complex (50 nM); assay: In-vitro enzymatic inhibitory activity testing, CDK12 inhibition assay (Caliper EZ Reader II); type: biochemical; settings: CDK12/cyclinK 50 nM, 180 min at 27° C.; read-out: CDK12 IC50
Sequence (Q9NYV4 686-1082, species assumed): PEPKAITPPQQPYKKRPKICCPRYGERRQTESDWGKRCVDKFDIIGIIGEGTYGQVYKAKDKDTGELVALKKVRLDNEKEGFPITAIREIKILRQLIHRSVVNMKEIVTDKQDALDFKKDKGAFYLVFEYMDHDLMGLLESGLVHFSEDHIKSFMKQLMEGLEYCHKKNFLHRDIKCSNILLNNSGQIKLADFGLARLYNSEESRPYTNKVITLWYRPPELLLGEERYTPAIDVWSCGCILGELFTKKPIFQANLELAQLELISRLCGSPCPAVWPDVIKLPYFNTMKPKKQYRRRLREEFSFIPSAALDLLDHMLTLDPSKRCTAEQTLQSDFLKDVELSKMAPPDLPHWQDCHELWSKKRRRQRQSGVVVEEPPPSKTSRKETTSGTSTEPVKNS
Sequence (O75909 whole entry partner, species assumed, the tested form may be a part): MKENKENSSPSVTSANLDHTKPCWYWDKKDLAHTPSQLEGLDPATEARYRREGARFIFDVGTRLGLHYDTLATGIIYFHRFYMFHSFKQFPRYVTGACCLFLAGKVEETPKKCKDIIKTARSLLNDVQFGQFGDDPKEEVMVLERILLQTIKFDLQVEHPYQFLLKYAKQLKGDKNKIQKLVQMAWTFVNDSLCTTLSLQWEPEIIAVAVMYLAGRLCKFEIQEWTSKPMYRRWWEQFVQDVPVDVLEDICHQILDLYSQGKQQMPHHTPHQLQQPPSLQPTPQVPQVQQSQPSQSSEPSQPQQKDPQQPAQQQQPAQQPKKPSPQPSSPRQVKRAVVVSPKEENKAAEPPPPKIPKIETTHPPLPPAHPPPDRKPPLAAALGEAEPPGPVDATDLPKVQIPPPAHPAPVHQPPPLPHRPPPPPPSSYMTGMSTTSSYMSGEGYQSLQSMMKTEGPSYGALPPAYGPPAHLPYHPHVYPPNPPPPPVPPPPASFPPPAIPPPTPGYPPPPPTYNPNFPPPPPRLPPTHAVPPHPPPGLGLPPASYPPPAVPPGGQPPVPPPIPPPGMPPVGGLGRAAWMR
pIC50: −log10 of the molar value.
observable: pIC50

The examples below pair each entry with its known result.
                                   compound  value_measured
0  CP(C)(=O)c1cccc2c(-c3nc(NC45CC(O)(C4)C5)ncc3C(F)(F)F)c[nH]c12    5.30 to 6.70
1  CP(C)(=O)c1cccc2c(-c3nc(NC(CO)CO)ncc3C(F)(F)F)c[nH]c12          < 4.30
2  CC1(C)COCC(Nc2ncc(C(F)(F)F)c(-c3c[nH]c4c(P(C)(C)=O)c(C#N)ccc34)n2)CN1 (stereo not shown)          < 4.30

// switching to the query compound
Query `CP(C)(=O)c1cccc2c(-c3nc(N[C@H]4CC[C@H](O)C4)ncc3C(F)(F)F)c[nH]c12` yields pIC50 of 4.30 to 5.30

###

target: CDK9/cyclinT1 complex (Homo sapiens); test: In-vitro enzymatic inhibitory activity testing, CDK9 inhibition assay (Caliper EZ Reader II); conditions: CDK9/cyclinT1 8 nM, 180 min at 27° C.
Sequence (P50750 whole entry, species assumed): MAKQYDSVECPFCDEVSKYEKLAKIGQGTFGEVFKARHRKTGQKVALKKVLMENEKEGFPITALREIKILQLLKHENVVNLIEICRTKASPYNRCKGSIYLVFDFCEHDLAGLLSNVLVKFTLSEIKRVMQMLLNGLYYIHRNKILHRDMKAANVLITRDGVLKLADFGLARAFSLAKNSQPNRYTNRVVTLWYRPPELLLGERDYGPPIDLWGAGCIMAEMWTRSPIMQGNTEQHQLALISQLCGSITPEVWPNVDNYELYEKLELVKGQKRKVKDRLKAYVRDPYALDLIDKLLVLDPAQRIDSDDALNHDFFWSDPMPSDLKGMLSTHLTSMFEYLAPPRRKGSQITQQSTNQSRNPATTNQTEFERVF
Sequence (O60563 whole entry partner, species assumed): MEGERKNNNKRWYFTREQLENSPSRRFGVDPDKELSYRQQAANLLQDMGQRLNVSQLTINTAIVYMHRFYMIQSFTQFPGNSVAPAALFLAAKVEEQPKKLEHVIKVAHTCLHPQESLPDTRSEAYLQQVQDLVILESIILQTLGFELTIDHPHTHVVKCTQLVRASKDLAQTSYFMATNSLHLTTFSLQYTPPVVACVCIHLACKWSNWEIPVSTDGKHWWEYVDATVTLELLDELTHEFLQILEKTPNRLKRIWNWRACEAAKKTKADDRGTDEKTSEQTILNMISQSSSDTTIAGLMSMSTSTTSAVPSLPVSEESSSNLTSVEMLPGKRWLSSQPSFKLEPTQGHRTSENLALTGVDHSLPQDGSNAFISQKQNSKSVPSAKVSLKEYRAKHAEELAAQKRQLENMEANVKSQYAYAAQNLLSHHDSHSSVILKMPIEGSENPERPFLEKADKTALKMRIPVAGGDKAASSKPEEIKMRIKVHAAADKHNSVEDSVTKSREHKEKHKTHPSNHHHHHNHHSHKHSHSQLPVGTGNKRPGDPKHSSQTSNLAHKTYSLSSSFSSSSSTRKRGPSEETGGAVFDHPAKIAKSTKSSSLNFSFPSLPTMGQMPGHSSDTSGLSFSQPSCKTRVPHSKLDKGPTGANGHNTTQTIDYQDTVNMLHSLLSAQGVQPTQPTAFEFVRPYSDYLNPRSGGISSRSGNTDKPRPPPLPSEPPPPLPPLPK
observable: IC50

The examples below pair each entry with its known result.
>>> df
                                   compound  observable  value_measured
0  CC(O)[C@H](C)Nc1ncc(C(F)(F)F)c(-c2c[nH]c3c(P(C)(C)=O)cccc23)n1 (single isomer, unassigned) [Compound 129]        IC50         > 50 µM
1  CP(C)(=O)c1cccc2c(-c3nc(NCC4(O)CCOC4)ncc3C(F)(F)F)c[nH]c12 (single isomer, unassigned) [Compound 121]        IC50         > 50 µM
2  CP(C)(=O)c1cccc2c(-c3nc(NCC4CC(O)C4)ncc3C(F)(F)F)c[nH]c12 (stereo not shown)        IC50         > 50 µM
3  COc1ccc2c(-c3nc(N[C@@H](C)CO)ncc3C(F)(F)F)c[nH]c2c1P(C)(C)=O        IC50      5 to 50 µM
4  C[C@@H](CO)Nc1ncc(C(F)(F)F)c(-c2c[nH]c3c(P(C)(C)=O)cc(F)cc23)n1        IC50         > 50 µM
5  CP(C)(=O)c1cccc2c(-c3nc(N[C@H]4CC[C@H](O)C4)ncc3C(F)(F)F)c[nH]c12        IC50      5 to 50 µM

// switching to the query compound
The compound `CN(C)[C@H]1CC[C@H](Nc2ncc(C(F)(F)F)c(-c3c[nH]c4nc(C#N)ccc34)n2)C1` , tested on CDK9/cyclinT1 complex (Homo sapiens), showed IC50 of 5 to 50 µM

###

Kindly supply the reported pIC50 values for the records listed here.
biological target: CDK7/cyclinH/MAT1 complex (Homo sapiens); test: In-vitro enzymatic inhibitory activity testing, CDK7 inhibition assay (Caliper EZ Reader II); conditions: CDK7/cyclinH/MAT1 6 nM, 180 min at 27° C.
Sequence (P50613 whole entry, species assumed): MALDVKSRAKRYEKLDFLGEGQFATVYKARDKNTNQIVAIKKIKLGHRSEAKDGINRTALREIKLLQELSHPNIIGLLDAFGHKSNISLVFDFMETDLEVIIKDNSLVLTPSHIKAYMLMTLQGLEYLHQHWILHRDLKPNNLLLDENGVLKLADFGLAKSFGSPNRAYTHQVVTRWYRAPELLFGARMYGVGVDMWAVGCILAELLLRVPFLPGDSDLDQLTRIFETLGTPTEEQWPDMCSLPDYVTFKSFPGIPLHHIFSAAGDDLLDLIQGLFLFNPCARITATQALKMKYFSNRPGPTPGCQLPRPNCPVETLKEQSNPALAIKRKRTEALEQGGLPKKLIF
Sequence (P51946 whole entry partner, species assumed): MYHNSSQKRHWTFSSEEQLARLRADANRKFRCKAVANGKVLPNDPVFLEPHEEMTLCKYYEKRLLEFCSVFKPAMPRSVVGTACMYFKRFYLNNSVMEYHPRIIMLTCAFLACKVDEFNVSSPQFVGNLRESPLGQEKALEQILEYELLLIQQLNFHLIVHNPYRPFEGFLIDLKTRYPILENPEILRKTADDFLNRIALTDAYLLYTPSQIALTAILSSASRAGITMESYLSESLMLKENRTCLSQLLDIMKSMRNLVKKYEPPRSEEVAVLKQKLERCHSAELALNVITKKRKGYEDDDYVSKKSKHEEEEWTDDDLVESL
Sequence (P51948 whole entry partner, species assumed): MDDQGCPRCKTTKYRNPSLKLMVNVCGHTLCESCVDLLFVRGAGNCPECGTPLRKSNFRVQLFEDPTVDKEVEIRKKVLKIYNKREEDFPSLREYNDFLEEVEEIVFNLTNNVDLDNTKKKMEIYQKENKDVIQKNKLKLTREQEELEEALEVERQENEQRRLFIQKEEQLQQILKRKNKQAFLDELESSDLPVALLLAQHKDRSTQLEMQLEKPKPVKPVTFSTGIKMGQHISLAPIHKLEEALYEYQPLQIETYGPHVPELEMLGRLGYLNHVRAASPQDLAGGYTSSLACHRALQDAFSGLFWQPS
pIC50: −log10 of the molar value.

The examples below pair each entry with its known result.
>>> print(df.to_string())
                                   compound  observable  value_measured
0  CP(C)(=O)c1cccc2c(-c3nc(NCC(O)C(F)(F)F)ncc3C(F)(F)F)c[nH]c12 (single isomer, unassigned) [Compound 146]       pIC50          > 7.70
1  C[C@@H](CO)Nc1ncc(C(F)(F)F)c(-c2c[nH]c3nc(C4CCCCO4)ccc23)n1 (single isomer, unassigned) [Compound 184]       pIC50    6.70 to 7.70
2  CP(C)(=O)c1cccc2c(-c3nc(NC4(CO)COC4)ncc3C(F)(F)F)c[nH]c12 [Compound 114]       pIC50          > 7.70
3  CP(C)(=O)c1cccc2c(-c3nc(NCC4CC4CO)ncc3C(F)(F)F)c[nH]c12 (single isomer, unassigned) [Compound 144]       pIC50    6.70 to 7.70

# return pIC50 for each item in the list
1. CP(C)(=O)c1cccc2c(-c3nc(NC4(CO)CC4)ncc3C(F)(F)F)c[nH]c12 [Compound 94]
2. C[C@@H](O)CNc1ncc(C(F)(F)F)c(-c2c[nH]c3c(P(C)(C)=O)cccc23)n1 [Compound 172]

1: 6.70 to 7.70; 2: 6.70 to 7.70

The compound CP(C)(=O)c1cccc2c(-c3nc(NCC4(O)CCCCCC4)ncc3C(F)(F)F)c[nH]c12 [Compound 152] , tested on CDK7/cyclinH/MAT1 complex (Homo sapiens), showed pIC50 of 6.70 to 7.70

###

Molecular target: CDK12 (aa686-1082)/cyclinK complex (Homo sapiens)
Construct: A CDK12 (aa686-1082)/cyclinK complex (50 nM)
Assay: In-vitro enzymatic inhibitory activity testing, CDK12 inhibition assay (Caliper EZ Reader II)
Type: biochemical
Conditions: CDK12/cyclinK 50 nM, 180 min at 27° C.; read-out: CDK12 IC50
Protocol: An assay was carried out in a U-bottom 384-well plate (coming, 4512#), and the reaction temperature was 27° C. […] A reaction mixture was analyzed on Caliper EZ Reader II by electrophoretic separation of a fluorogenic substrate and a phosphorylated product. Data were calculated by using GraphPad Prism version 6.0, and IC50 values were adjusted and obtained by using a nonlinear regression model of a dose response curve.
pIC50: −log10 of the molar value.
Kindly supply the reported pIC50 values for the records listed here.

The examples below pair each entry with its known result.
>>> df
                                   compound  observable  value_measured
0  C[C@@H](CO)Nc1ncc(C(N)=O)c(-c2c[nH]c3c(P(C)(C)=O)cccc23)n1       pIC50          < 4.30
1  CC1(C)COCC(Nc2ncc(C(F)(F)F)c(-c3c[nH]c4c(P(C)(C)=O)cccc34)n2)CN1 (single isomer, unassigned) [Compound 91]       pIC50    4.30 to 5.30
2  CP(C)(=O)c1cccc2c(-c3nc(NCC4(O)CCC4)ncc3C(F)(F)F)c[nH]c12       pIC50          < 4.30
3  Cc1noc(C)c1-c1ccc2c(-c3nc(N[C@@H]4CCC45CNC5)ncc3C(F)(F)F)c[nH]c2n1       pIC50    5.30 to 6.70
4  FC(F)(F)c1cnc(NCC2CCNC2)nc1-c1c[nH]c2nc(N3CCOCC3)ccc12 (stereo not shown)       pIC50    4.30 to 5.30
5  C[C@@H](CO)Nc1ncc(C(F)(F)F)c(-c2c[nH]c3c(P(C)(C)=O)c(F)ccc23)n1       pIC50    4.30 to 5.30

# return pIC50 for each item in the list
1. CP(C)(=O)c1cccc2c(-c3nc(NCC(O)C(F)(F)F)ncc3C(F)(F)F)c[nH]c12 (stereo not shown) [Compound 145]
2. FC(F)(F)c1cnc(NC2CCCNCC2)nc1-c1c[nH]c2nc(N3CCOCC3)ccc12 (single isomer, unassigned) [Compound 49]
3. FC(F)(F)c1cnc(NC2CCC3CNCC32)nc1-c1c[nH]c2nc(N3CCOCC3)ccc12 (single isomer, unassigned) [Compound 57]
4. CC[C@](C)(CO)Nc1ncc(C(F)(F)F)c(-c2c[nH]c3c(P(C)(C)=O)cccc23)n1
5. CP(C)(=O)c1cccc2c(-c3nc(N[C@H]4CCCC[C@@H]4O)ncc3C(F)(F)F)c[nH]c12
6. CP(C)(=O)c1cccc2c(-c3nc(NC4(CO)CC(F)(F)C4)ncc3C(F)(F)F)c[nH]c12

1. < 4.30
2. 4.30 to 5.30
3. < 4.30
4. < 4.30
5. < 4.30
6. < 4.30

The compound FC(F)(F)c1cnc(N[C@H]2CCCNC2)nc1-c1c[nH]c2cc(N3CCCC3)ccc12 [Compound 101, reference compound] , tested on CDK12 (aa686-1082)/cyclinK complex (Homo sapiens), showed pIC50 of 5.30 to 6.70

###

Kindly supply the reported IC50 values for the records listed here.
biological target: CDK2/cyclinE1 complex (Homo sapiens, UniProt P24941); test: In-vitro enzymatic inhibitory activity testing, CDK2 inhibition assay (Caliper EZ Reader II); conditions: CDK2/cyclinE1 0.5 nM, 180 min at 27° C.

The examples below pair each entry with its known result.
>>> df
                                   compound  observable  value_measured
0  C[C@@H](CO)Nc1ncc(Br)c(-c2c[nH]c3c(P(C)(C)=O)cccc23)n1        IC50     0.2 to 5 µM
1  CP(C)(=O)c1cccc2c(-c3nc(NCC4(O)CCOCC4)ncc3C(F)(F)F)c[nH]c12        IC50      5 to 50 µM
2  CC[C@](C)(CO)Nc1ncc(C(F)(F)F)c(-c2c[nH]c3c(P(C)(C)=O)cccc23)n1        IC50      5 to 50 µM
3  CP(C)(=O)c1cccc2c(-c3nc(NCC4(CO)CC4)ncc3C(F)(F)F)c[nH]c12        IC50      5 to 50 µM
4  CP(C)(=O)c1cccc2c(-c3nc(N[C@H]4CC[C@H](N)C4)ncc3C(F)(F)F)c[nH]c12        IC50     0.2 to 5 µM

# return IC50 for each item in the list
1. FC(F)(F)c1cnc(NC2CCCNCC2)nc1-c1c[nH]c2nc(N3CCOCC3)ccc12 (stereo not drawn) [Compound 47]
2. FC(F)(F)c1cnc(NC2CCCC3(CCCN3)C2)nc1-c1c[nH]c2nc(N3CCOCC3)ccc12 (stereo not drawn)
3. FC(F)(F)c1cnc(N[C@@H]2CCC23CNC3)nc1-c1c[nH]c2nc(N3CCOCC3)ccc12
4. CP(C)(=O)c1cccc2c(-c3nc(NC4(CO)CC(F)(F)C4)ncc3C(F)(F)F)c[nH]c12
5. FC(F)(F)c1cnc(NC2COC3(CCNCC3)C2)nc1-c1c[nH]c2nc(N3CCOCC3)ccc12 (stereo not drawn)
6. CP(C)(=O)c1cccc2c(-c3nc(NC4(CO)CCOCC4)ncc3C(F)(F)F)c[nH]c12
7. C[C@@H](CO)Nc1ncc(C#N)c(-c2c[nH]c3c(P(C)(C)=O)cccc23)n1

1: 5 to 50 µM; 2: 5 to 50 µM; 3: 5 to 50 µM; 4: 5 to 50 µM; 5: 5 to 50 µM; 6: > 50 µM; 7: 0.2 to 5 µM

# return IC50 for each item in the list
1. CP(C)(=O)c1cccc2c(-c3nc(NC4(CO)CC(F)C4)ncc3C(F)(F)F)c[nH]c12 (stereo not drawn)
2. CP(C)(=O)c1cccc2c(-c3nc(NCC(O)C4CCC4)ncc3C(F)(F)F)c[nH]c12 (single isomer, unassigned) [Compound 140]
3. CC(C)C(O)CNc1ncc(C(F)(F)F)c(-c2c[nH]c3c(P(C)(C)=O)cccc23)n1 (stereo not drawn)

5 to 50 µM
5 to 50 µM
5 to 50 µM

These measurements were taken from patent US20240124504A1.
